Each record here notes measured refractive index.
Test: refractive index (Na D-line) (dimensionless); xn = mol fraction of the nth substance listed
Details: 288.15 K; 101.32 kPa; Liquid; x2 = 0.05
± gives the expanded uncertainty stated by the source.

Compound: CCCCCl [1-chlorobutane] + CO
refractive index: 1.4032 ± 0.0006

Compound: CCCCCl [1-chlorobutane] + CCO
refractive index: 1.403 ± 0.0006

Compound: CCCCCl [1-chlorobutane] + CCCCO
refractive index: 1.4041 ± 0.0006

Compound: CCCCCl [1-chlorobutane] + CCCO
refractive index: 1.4036 ± 0.0006

###

Assay: xn = mol fraction of the nth substance listed
Conditions: 308.15 K; 101.32 kPa; Liquid; x2 = 0.7

Compound: CCCCCl [1-chlorobutane] + CCCCO
mass density, kg/m3: 821.5
//
Compound: CCCCCl [1-chlorobutane] + CCO
mass density, kg/m3: 815.8
//
Compound: CCCCCl [1-chlorobutane] + CO
mass density, kg/m3: 823.1
//
Compound: CCCCCl [1-chlorobutane] + CCCO
mass density, kg/m3: 820.3
